System: 3D7-MR4 trophozoite parasite-infected RBCs
assay-procedure: Metabolomic profiling (hydrophilic metabolite changes, UHPLC-MS)
Format: cell-based, Plasmodium falciparum
protocol-conditions: metabolite SID
measurement-name: Log2(fold change) SID
Response field accepts a number only; no unit should be typed.

Use the examples below as a reference point.
// query For the compound C[C@H]1Cc2c([nH]c3cc(Cl)c(F)cc23)[C@@]2(N1)C(=O)Nc1ccc(Cl)cc12 [KAE609, reference compound] , give its reported Log2(fold change) SID.
// result 0.0000

// query For the compound CN(C(=O)c1cn2c(-c3ccc(C(F)(F)F)cc3)cnc2cn1)c1ccc(C#N)cc1 [KAI407, reference compound] , give its reported Log2(fold change) SID.
// result 0.0000

Next:
// query For the compound CCCCN(CCCC)CC(O)c1cc(Cl)cc2c1-c1ccc(Cl)cc1/C2=C/c1ccc(Cl)cc1 (stereo not drawn) [Lumefantrine, reference compound] , give its reported Log2(fold change) SID.
// result -0.7176

// query For the compound FC(F)(F)c1ccc(Nc2cc3[nH]c(-c4cccc(C(F)(F)F)c4)nc3cn2)nc1 , give its reported Log2(fold change) SID.
// result 0.1202

// query For the compound FC(F)(F)c1cccc(Nc2nc3ccccc3nc2Nc2cccc(C(F)(F)F)c2)c1 , give its reported Log2(fold change) SID.
// result 0.0000

// query For the compound Cl.c1ccc2c(NCCCCCCNc3c4c(nc5ccccc35)CCCC4)c3c(nc2c1)CCCC3 , give its reported Log2(fold change) SID.
// result -6.9124

// query For the compound Cc1cc(Nc2ccc(OCc3ccccc3)cc2)nc2cc(O)ccc12 , give its reported Log2(fold change) SID.
// result -0.9911

// query For the compound O=C1C(O)=C([C@H]2CC[C@H](c3ccc(Cl)cc3)CC2)C(=O)c2ccccc21 [Atovaquone, reference compound] , give its reported Log2(fold change) SID.
// result 0.0448

// query For the compound CCCOCc1cc(CN2CCN(c3cccc(Cl)c3)CC2)c(O)c2ncccc12 , give its reported Log2(fold change) SID.
// result 0.2266

---

Log2(fold change) proline values, listed per item
System: 3D7-MR4 trophozoite parasite-infected RBCs
assay-procedure: Metabolomic profiling (hydrophilic metabolite changes, UHPLC-MS)
Type: cell-based, Plasmodium falciparum
protocol-conditions: metabolite proline
Response field accepts a number only; no unit should be typed.

// query Check 3D7-MR4 trophozoite parasite-infected RBCs data and give Log2(fold change) proline for CC(C)(C)OC(=O)N1CCN(c2ccccc2NC(=O)c2cccc(C(F)(F)F)c2Oc2ccc(F)cc2)CC1 .
// result -0.4182

// query Check 3D7-MR4 trophozoite parasite-infected RBCs data and give Log2(fold change) proline for CCCN(CCC)CC(O)COc1ccccc1C(=O)Nc1ccccc1 (stereo not shown) .
// result 0.0000

// query Check 3D7-MR4 trophozoite parasite-infected RBCs data and give Log2(fold change) proline for COc1cncc(-c2cncc(N3CCN(c4ccncc4)CC3)n2)c1 .
// result 0.0444

Next:
// query Check 3D7-MR4 trophozoite parasite-infected RBCs data and give Log2(fold change) proline for FC(F)(F)c1ccc(Nc2cc3[nH]c(-c4cccc(C(F)(F)F)c4)nc3cn2)nc1 .
// result -0.1132

---

Test system: 3D7-MR4 trophozoite parasite-infected RBCs
assay-procedure: Metabolomic profiling (hydrophilic metabolite changes, UHPLC-MS)
Type: cell-based, Plasmodium falciparum
protocol-conditions: metabolite IMP
Given measured Log2(fold change) IMP, output Fulfilled if it is greater than or equal to 0.03 and Not fulfilled if not.

// query Evaluate CN(C(=O)c1cn2c(-c3ccc(C(F)(F)F)cc3)cnc2cn1)c1ccc(C#N)cc1 [KAI407, reference compound] : Log2(fold change) IMP at minimum 0.03?
// result Fulfilled

Next:
// query Evaluate FC(F)(F)c1cccc(Nc2nc3ccccc3nc2Nc2cccc(C(F)(F)F)c2)c1 [MMV665794] : Log2(fold change) IMP at minimum 0.03?
// result Not fulfilled

// query Evaluate O=C(Nc1ccc(N2CCNCC2)cc1)c1ccn2ncc(-c3cccc(Cl)c3)c2n1.O=C(O)C(F)(F)F [MMV022478] : Log2(fold change) IMP at minimum 0.03?
// result Not fulfilled

// query Evaluate COc1cc(-c2nc(-c3ccccc3)c(-c3ccccc3)[nH]2)ccc1OCCN(C)C [MMV027496] : Log2(fold change) IMP at minimum 0.03?
// result Fulfilled
